Recorded values, source paper PMC4670726.

- MEASUREMENT TARGET: JNK1 (as used in the fluorescence polarization titrations) (human, UniProt P45983 1-427)
- Sequence (P45983 whole entry): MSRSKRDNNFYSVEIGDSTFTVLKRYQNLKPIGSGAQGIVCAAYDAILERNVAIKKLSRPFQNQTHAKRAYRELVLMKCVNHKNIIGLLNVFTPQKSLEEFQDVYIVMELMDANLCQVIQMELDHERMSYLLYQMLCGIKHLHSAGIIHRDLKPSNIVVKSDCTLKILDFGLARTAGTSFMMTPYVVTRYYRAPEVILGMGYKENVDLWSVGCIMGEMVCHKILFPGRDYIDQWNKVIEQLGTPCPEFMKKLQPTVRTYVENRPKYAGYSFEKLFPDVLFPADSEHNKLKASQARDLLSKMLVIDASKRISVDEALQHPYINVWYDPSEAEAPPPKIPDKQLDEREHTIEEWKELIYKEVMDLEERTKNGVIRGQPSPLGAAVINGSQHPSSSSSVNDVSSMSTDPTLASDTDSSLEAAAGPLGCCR
- TEST DETAILS: FP
pKd: −log10 of the molar value. Ends that are not written are not given here.
The threshold is inclusive: pKd of exactly 5 counts as yes (1); values below receive no (0).

Q: In plain terms: is recorded pKd at least 5 for RPTRLSL (not fully specified) [IRS1 peptide] ?
Result: yes (1)

Q: In plain terms: is recorded pKd at least 5 for RPQDLNL (not fully specified) [MKP5 peptide] ?
Result: no (0)

Q: In plain terms: is recorded pKd at least 5 for RHRDKRLSLNLP (not fully specified) [GAB3 peptide] ?
Result: no (0)

Q: In plain terms: is recorded pKd at least 5 for RPKSLQL (not fully specified) [DOCK5 peptide] ?
Result: yes (1)

Q: In plain terms: is recorded pKd at least 5 for DPLHPTL (also: non-native Glu flanks added at both ends, number not given here) [ATF7 peptide] ?
Result: no (0)

Q: In plain terms: is recorded pKd at least 5 for RPTSLAL (not fully specified) [MYO9B peptide] ?
Result: no (0)

Q: In plain terms: is recorded pKd at least 5 for KKKSKPLNLKIH (not fully specified) [KSR2 peptide] ?
Result: no (0)

Q: In plain terms: is recorded pKd at least 5 for RPTTLPL (not fully specified) [PDE4B peptide] ?
Result: no (0)

Q: In plain terms: is recorded pKd at least 5 for RKHKDLYLPL (not fully specified) [DCX peptide] ?
Result: no (0)
